# assay_target: T1, Growth and Differentiation Factor-11 (GDF11) (UniProt O95390 299-407)
# T1 construct: also called BMP11
# T1 sequence (looked up): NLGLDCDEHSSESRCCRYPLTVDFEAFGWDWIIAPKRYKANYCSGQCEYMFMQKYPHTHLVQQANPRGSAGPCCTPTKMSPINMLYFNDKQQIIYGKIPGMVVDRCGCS
# assay_info: BiaCore; receptor-Fc captured by anti-hFc antibody, ligand injected
Kd values, listed per item
Number in nM, nothing else.

binder | units_symbol | Kd
ActRIIB(A24N 20-134)-hFc (Fc fusion, also called A24N variant; not shown: linker (if any) and human Fc (hFc)) GRGENETRECIYYNANWELERTNQSGLERCEGEQDKRLHCYASWRNSSGTIELVKKGCWLDDFNCYDRQECVATEENPQVYFCCCEGNFCNERFTHLPEAGGPEVTYEPPPTAPT | nM | 0.0519

Query string: Consider the binder ActRIIB(L79D 20-134)-hFc (Fc fusion, also called GDF Trap) GRGEAETRECIYYNANWELERTNQSGLERCEGEQDKRLHCYASWRNSSGTIELVKKGCWDDDFNCYDRQECVATEENPQVYFCCCEGNFCNERFTHLPEAGGPEVTYEPPPTAPTGGGTHTCPPCPAPELLGGPSVFLFPPKPKDTLMISRTPEVTCVVVDVSHEDPEVKFNWYVDGVEVHNAKTKPREEQYNSTYRVVSVLTVLHQDWLNGKEYKCKVSNKALPVPIEKTISKAKGQPREPQVYTLPPSREEMTKNQVSLTCLVKGFYPSDIAVEWESNGQPENNYKTTPPVLDSDGSFFLYSKLTVDKSRWQQGNVFSCSVMHEALHNHYTQKSLSLSPGK and give its measured Kd.
Result string: 0.655

Query string: Consider the binder ActRIIB(L79E 20-134)-hFc (Fc fusion) GRGEAETRECIYYNANWELERTNQSGLERCEGEQDKRLHCYASWRNSSGTIELVKKGCWEDDFNCYDRQECVATEENPQVYFCCCEGNFCNERFTHLPEAGGPEVTYEPPPTAPTGGGTHTCPPCPAPELLGGPSVFLFPPKPKDTLMISRTPEVTCVVVDVSHEDPEVKFNWYVDGVEVHNAKTKPREEQYNSTYRVVSVLTVLHQDWLNGKEYKCKVSNKALPVPIEKTISKAKGQPREPQVYTLPPSREEMTKNQVSLTCLVKGFYPSDIAVEWESNGQPENNYKTTPPVLDSDGSFFLYSKLTVDKSRWQQGNVFSCSVMHEALHNHYTQKSLSLSPGK and give its measured Kd.
Result string: 0.716

Query string: Consider the binder ActRIIB(R64K 20-134)-hFc (Fc fusion, not shown: linker (if any) and human Fc (hFc)) GRGEAETRECIYYNANWELERTNQSGLERCEGEQDKRLHCYASWKNSSGTIELVKKGCWLDDFNCYDRQECVATEENPQVYFCCCEGNFCNERFTHLPEAGGPEVTYEPPPTAPT and give its measured Kd.
Result string: 0.0356
